system: STZ-induced diabetic rats; assay: Change of insulin and fasting blood glucose after administration, STZ-induced diabetic rats; format: in vivo; settings: 4 mg/kg, 2 hr
Endpoint: The change of the fasting blood glucose after administration

{"Compound": "Cl.Cn1c(=O)c2c(ncn2CCN2CCN(c3ccccc3Cl)CC2)n(C)c1=O [KMUP-1 HCl salt]", "Observed Result": "1.5 ± 0.2 mg/dL"}
{"Compound": "CC(C)[C@H]1CC[C@H](C(=O)N[C@H](Cc2ccccc2)C(=O)O)CC1 [Nat, Nateglinide, reference compound]", "Observed Result": "0.3 ± 0.2 mg/dL"}
{"Compound": "CCOc1cc(CC(=O)N[C@@H](CC(C)C)c2ccccc2N2CCCCC2)ccc1C(=O)O [Rep, Repaglinide, reference compound]", "Observed Result": "0.6 ± 0.1 mg/dL"}
{"Compound": "CC(C)[C@H]1CC[C@H](C(=O)N[C@H](Cc2ccccc2)C(=O)O)CC1.Cn1c(=O)c2c(ncn2CCN2CCN(c3ccccc3Cl)CC2)n(C)c1=O [KMUP-1-Nat, KMUP-1-Nateglinide Complex]", "Observed Result": "0.8 ± 0.4 mg/dL"}
